experiment.notes: chemical genetic growth profiling, strain panel (AID 1159580);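 note: tested at 20 µM; growth read once vehicle control cultures reached saturation at 30 °C; 1 = growth at the plate median or of vehicle wells; lower values mean less growth of the strain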
condition: S. cerevisiae deletion strains, growth OD, locus YBR009C, strain hhf1
Out of some 5,500 compounds screened, about 2,000 (36%) were called active. Inconclusive results (about 18%) are left out. Cut-off read from the data, not from the text of the source: active = normalized growth mostly below about 0.91 (no sharp cut-off); inconclusive = no clear call, values can overlap the other calls; inactive = mostly above about 0.92. Some of the results follow.
Your response should consist of one outcome taken from Y for active, N for inactive

{"compound": "CCn1cc(C(=O)O)c(=O)c2cc(F)c(N3CCNCC3)nc21", "label.value": "N"}

# input # fetch the recorded call for `O=C(NC(=O)c1ccccc1Cl)Nc1ccc(OC(F)(F)F)cc1` here
# output N

# input Okay, and COc1c(N2CCNC(C)C2)c(F)cc2c(=O)c(C(=O)O)cn(C3CC3)c12 (stereo unspecified) ?
# output N

# input Okay, and CO/N=C1/CN(c2nc3c(cc2F)c(=O)c(C(=O)O)cn3C2CC2)CC1CN (stereo unspecified) ?
# output N

# input Okay, and `Oc1ccc2c(c1)O[C@H](c1ccc(O)c(O)c1)[C@@H](O)C2` ?
# output N

# input Okay, and `O=C(Oc1cc(OC(=O)c2ccccc2)c2c(c1)O[C@H](c1ccc(OC(=O)c3ccccc3)c(OC(=O)c3ccccc3)c1)[C@@H](OC(=O)c1ccccc1)C2)c1ccccc1` ?
# output N

# input Okay, and CCn1cc(C(=O)O)c(=O)c2cc(F)c(N3CCNC(C)C3)c(F)c21 (stereo unspecified) ?
# output N

* * *

normalized growth: recorded values
experiment.notes: chemical genetic growth profiling, strain panel (AID 1159580);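 note: tested at 20 µM; growth read once vehicle control cultures reached saturation at 30 °C; 1 = growth at the plate median or of vehicle wells; lower values mean less growth of the strain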
condition: S. cerevisiae deletion strains, growth OD, locus YPL240C, strain hsp82, hits give low values
In all, about 5,500 compounds went through this assay and about 2,000 (36%) were called active. About 18% were inconclusive and are not listed. The list shows a part of the results.
Output spec: single numeric token, no unit.

Reference set (5 entries):
{"compound": "OCCc1ccccc1", "normalized growth": 0.997}
{"compound": "CN1C2C[C@H](OC(=O)[C@H](CO)c3ccccc3)C[C@H]1[C@@H](O)C2", "normalized growth": 1.02}
{"compound": "CN(C)CCOC(c1ccc(Cl)cc1)c1ccccn1 (stereo unspecified)", "normalized growth": 1.01}
{"compound": "C/C=C(\\C)C(=O)O[C@H]1C[C@@H](OC(C)=O)[C@@]2(C(=O)OC)CO[C@@H]3C2[C@]12CO[C@](O)(C(=O)OC)[C@H]2[C@](C)(C12O[C@@]1(C)[C@H]1C[C@@H]2OC2OC=C[C@@]21O)[C@@H]3O (stereo partly specified)", "normalized growth": 0.985}
{"compound": "O=C(O)CCCc1ccc(N(CCCl)CCCl)cc1", "normalized growth": 0.988}

# input Reported normalized growth for `O=C1NCC2(CCN(CCc3ccccc3)CC2)O1` : what is it?
# output 0.986

# input Okay, and CN1C2CCC1CC(OC(c1ccccc1)c1ccccc1N)C2 (stereo unspecified) ?
# output 1.02

# input Okay, and `CCN(CC)Cc1ccc(Nc2ccnc3cc(Cl)ccc23)cc1O` ?
# output 1.02

# input Okay, and `CN1CCC(OC(c2ccccc2)c2ccccc2)CC1` ?
# output 1.01

# input Okay, and `COc1ccc(C(=O)CC(=O)O)c2c1C=CC(C)(C)O2` ?
# output 0.999

# input Okay, and `CNC(=O)O/N=C(\C)SC` ?
# output 0.998

* * *

experiment.notes: chemical genetic growth profiling, strain panel (AID 1159580);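 note: tested at 20 µM; growth read once vehicle control cultures reached saturation at 30 °C; 1 = growth at the plate median or of vehicle wells; lower values mean less growth of the strain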
condition: S. cerevisiae deletion strains, growth OD, locus YNL298W, strain CLA4, hits give low values
Out of some 5,500 compounds screened, about 2,000 (36%) were called active. Roughly 18% stayed inconclusive and do not appear here. The list shows a part of the results.
normalized growth: recorded values
Output spec: single numeric token, no unit.

{"compound": "CCn1cc(C(=O)O)c(=O)c2cc(F)c(N3CCNC(C)C3)c(F)c21 (stereo not drawn)", "experimental.value": 0.988}
{"compound": "c1ccc2c(c1)CCCC2C1=NCCN1 (stereo not drawn)", "experimental.value": 1.02}
{"compound": "C#CCN(C)Cc1ccccc1", "experimental.value": 1.03}
{"compound": "CC[C@H]1OC(=O)[C@H](C)[C@@H](O[C@H]2C[C@@](C)(OC)[C@@H](O)[C@H](C)O2)[C@H](C)[C@@H](O[C@@H]2O[C@H](C)C[C@H](N(C)C)[C@H]2O)[C@](C)(OC)C[C@@H](C)C(=O)[C@H](C)[C@@H](O)[C@]1(C)O", "experimental.value": 1.02}
{"compound": "O=C(O[C@@H]1Cc2c(O)cc(O)cc2O[C@@H]1c1cc(O)c(O)c(O)c1)c1cc(O)c(O)c(O)c1", "experimental.value": 1}
{"compound": "Oc1cc(O)c2c(c1)O[C@H](c1ccc(O)c(O)c1)[C@@H](O)C2", "experimental.value": 0.969}
{"compound": "COc1ccc(C(c2ccc(OC)cc2)C(Cl)(Cl)Cl)cc1", "experimental.value": 0.977}
{"compound": "COc1ccc(-c2coc3cc(O)ccc3c2=O)cc1", "experimental.value": 0.928}
{"compound": "CCn1cc(C(=O)O)c(=O)c2cc(F)c(N3CCNCC3)nc21", "experimental.value": 1.01}
{"compound": "N[C@@H](Cc1ccc(N(CCCl)CCCl)cc1)C(=O)O", "experimental.value": 0.979}

# input Reported normalized growth for `COc1ccc(-c2coc3cc(OC)ccc3c2=O)cc1` : what is it?
# output 0.906

# input Okay, and `NCCc1cnc[nH]1` ?
# output 1.02

# input Okay, and COC(=O)CC1C2(C)CC34OC5(C)OC6(C7/C(=C(/O)C(C)C)C(=O)OC(c8ccoc8)C7(C)C(OC(=O)C(C)C)C(OC)C6(O5)C13C)C(OC)C4(OC)C2OC(C)=O (stereo not drawn) ?
# output 0.987

# input Okay, and `O=C(O)CCCc1ccccc1` ?
# output 0.955

# input Okay, and `O=S(=O)(O)CCS` ?
# output 0.982

# input Okay, and `Oc1cc(O)c2c(c1)O[C@H](c1cc(O)c(O)c(O)c1)[C@H](O)C2` ?
# output 0.969

# input Okay, and `COc1cc(OC)c2c(c1)O[C@H](c1cc(OC)c(OC)c(OC)c1)[C@H](OC(=O)c1cc(OC)c(OC)c(OC)c1)C2` ?
# output 1.01

# input Okay, and C=C1CCC2[C@](C)(CO)[C@H](O)CC[C@@]2(C)[C@@H]1C/C=C1/C(=O)OC[C@H]1O (stereo partly drawn) ?
# output 1.03

# input Okay, and `CCCCC[C@H]1C(=O)O[C@H](C)[C@H](NC(=O)c2cccc(NC=O)c2O)C(=O)O[C@@H](C)[C@@H]1OC(=O)CC(C)C` ?
# output 0.891

# input Okay, and O=C1CCC(N2C(=O)c3ccccc3C2=O)C(=O)N1 (stereo not drawn) ?
# output 1

# input Okay, and `CC(=O)Oc1cc(OC(C)=O)c2c(c1)O[C@H](c1ccc(OC(C)=O)c(OC(C)=O)c1)[C@H](OC(C)=O)C2` ?
# output 1.03
